- Measurement target: full-length HAQ STING (Homo sapiens, UniProt Q86WV6, G230A/H232R/R293Q/R71H)
- Construct: made in house; host or cells: Trichoplusia ni (Hi-Five) insect cells, baculovirus generated in Sf21; crude membranes
- Sequence (Q86WV6 with tags, fused parts or gaps R71H/G230A/H232R/R293Q): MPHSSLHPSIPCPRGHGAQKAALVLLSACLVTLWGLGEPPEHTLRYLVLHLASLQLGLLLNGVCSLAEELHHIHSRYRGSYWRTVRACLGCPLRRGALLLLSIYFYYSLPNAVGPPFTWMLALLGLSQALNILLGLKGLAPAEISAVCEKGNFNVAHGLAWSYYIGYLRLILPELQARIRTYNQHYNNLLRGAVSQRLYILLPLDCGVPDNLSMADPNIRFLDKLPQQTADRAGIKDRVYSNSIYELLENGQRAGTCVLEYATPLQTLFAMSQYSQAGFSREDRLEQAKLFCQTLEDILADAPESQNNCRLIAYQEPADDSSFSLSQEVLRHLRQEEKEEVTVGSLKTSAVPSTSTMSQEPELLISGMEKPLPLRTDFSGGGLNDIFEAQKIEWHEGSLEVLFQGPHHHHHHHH
- Assay name: 3H-cGAMP filtration binding assay (HAQ STING)
- Assay setup: competition with tritiated cGAMP ligand; T. ni cell membranes overexpressing full-length HAQ STING
For each entry below, report its EC50 value.
State the answer as a number, implicitly in nM.

Q: Give its EC50 value. Item: Nc1ncnn2c([C@H]3C[C@@H]4O[P@](=O)(S)OC[C@H]5O[C@@H](n6ccc(=O)n7ccnc67)[C@H](O[P@@](=O)(S)OC[C@H]4O3)[C@@H]5O)cnc12 (single isomer, unassigned)
A: 23

Q: Give its EC50 value. Item: Nc1ncnc2c1ncn2[C@@H]1O[C@@H]2CO[P@@](=O)(S)O[C@@H]3[C@H](O)[C@@H](CO[P@](=O)(S)O[C@H]2[C@H]1O)O[C@H]3n1ccc(=O)n2ccnc12
A: 2

Q: Give its EC50 value. Item: Nc1ncnc2c1ncn2[C@@H]1O[C@@H]2COP(=O)(S)O[C@H]3[C@H](F)[C@H](n4ccc5c(=O)[nH]cnc54)O[C@@H]3COP(=O)(S)O[C@@H]1C2 (single isomer, unassigned) [Example 47]
A: 460

Q: Give its EC50 value. Item: Nc1nc2c(ncn2[C@@H]2O[C@@H]3CO[P@@](=O)(S)O[C@H]4C[C@H](n5ccc6c(=O)[nH]cnc65)O[C@@H]4CO[P@@](=O)(S)O[C@@H]2C3)c(=O)[nH]1 (single isomer, unassigned)
A: 1

Q: Give its EC50 value. Item: Nc1ncnc2c1ncn2[C@@H]1O[C@@]23CO[C@@H]1[C@@H]2OP(=O)(S)OC[C@H]1O[C@@H](n2ccc(=O)n4ccnc24)[C@H](OP(=O)(S)OC3)[C@@H]1O (some centres unmarked)
A: 28

---

- Tested on: IFN-β secretion from THP1 cells
- Assay name: IFN-β secretion in THP1 cell culture (5 h)
- Assay type: cell-based, human
- Assay setup: THP1 cells, 5 h incubation, compound at 30 μM; 30 uM cGAMP = 100%
- Method: The ability of compounds to stimulate the secretion of interferon-beta from THP1 cells was measured using a human IFN-β AlphaLISA kit (Perkin Elmer, Cat. No. AL265F). The basic protocol is as follows: The cell viability and count was ascertained using a Beckman Coulter V-Cell XR cell counter. […] The assay was started by dispensing 40 μL of the previously prepared cell suspension into the wells of the plate containing compounds. […] The plate was then read on a Perkin Elmer Envision (λex680 nm, λem=570 nm). […]
For each entry below, report its % Effect at 30 μM relative to 2′3′-cGAMP value.
State the answer as a number, implicitly in %.

Q: Give its % Effect at 30 μM relative to 2′3′-cGAMP value. Item: Nc1ncnc2c1ncn2[C@@H]1O[C@@H]2COP(=O)(S)O[C@H]3[C@H](F)[C@H](n4ccc5c(=O)[nH]cnc54)O[C@@H]3COP(=O)(S)O[C@@H]1C2 (single isomer, unassigned) [Example 46]
A: 166

Q: Give its % Effect at 30 μM relative to 2′3′-cGAMP value. Item: Nc1ncnc2c1ncn2[C@@H]1O[C@@H]2COP(=O)(S)O[C@@H]3[C@H](O)[C@@H](COP(=O)(S)O[C@H]2[C@@H]1F)O[C@H]3n1cnc2c(=O)n3cc[nH]c3nc21 (single isomer, unassigned) [Example 15]
A: 318

Q: Give its % Effect at 30 μM relative to 2′3′-cGAMP value. Item: Nc1ncnc2c1ncn2[C@@H]1O[C@@]23CO[C@@H]1[C@@H]2OP(=O)(S)OC[C@H]1O[C@@H](n2cnc4c(=O)n5cc[nH]c5nc42)[C@H](OP(=O)(S)OC3)[C@@H]1F (single isomer, unassigned) [Example 25]
A: 131

Q: Give its % Effect at 30 μM relative to 2′3′-cGAMP value. Item: Nc1nc2c(nnn2[C@@H]2O[C@@H]3COP(=O)(S)O[C@H]4C[C@H](n5ccc6c(=O)[nH]cnc65)O[C@@H]4COP(=O)(S)O[C@@H]2C3)c(=O)[nH]1 (single isomer, unassigned) [Example 43]
A: 120
